PROTOCOL_DESCRIPTION: xn = mol fraction of the nth substance listed, in the solute-free solvent
CONDITION_SUMMARY: 303.15 K; x2 = 0.4
Kindly return Y if reported solubility (g/100 g solution) is no lower than 8; return N if it is lower.

Exam item: Could you verify whether the entry CCOC(=O)OC1=C(c2cc(C)ccc2C)C(=O)NC12CCC(OC)CC2 (stereo unspecified) + CC(C)=O + O shows solubility (g/100 g solution) of no less than 8?
Marked response: Y

Exam item: Hi, just wondering whether Cl.NC(Cc1ccccc1)C(=O)OCc1ccccc1 (stereo unspecified) + CO + CC(C)=O shows solubility (g/100 g solution) of 8 or higher.
Marked response: N

Exam item: Is reported solubility (g/100 g solution) greater than or equal to 8 here: Cc1ncc(CO)c(CO)c1O.Cl + O + CC#N
Marked response: N

Exam item: Could you please find out whether Cl.N=C(N)NC(=N)N1CCOCC1 + O + CC(C)O has solubility (g/100 g solution) that meets 8 or exceeds it?
Marked response: N

Exam item: Given Cc1ncc(CO)c(CO)c1O.Cl + O + CCCO , state whether its solubility (g/100 g solution) is at least 8.
Marked response: N
